target: HLA-A*29:02; assay: IEDB peptide-MHC binding, purified MHC/competitive/radioactivity; filed as Kd, often an IC50 or EC50 that approximates it; bounds were set here for any values at or beyond the usual limits of such assays; details: source organism: Lassa virus Josiah
ENDPOINT: Kd (µM)

DCIMTSYQYL :: 14.2

====

molecular target: HLA-C*14:02; experiment: IEDB peptide-MHC binding, purified MHC/competitive/fluorescence; filed as Kd, often an IC50 or EC50 that approximates it; bounds were set here for any values at or beyond the usual limits of such assays; conditions: source organism: Yersinia pestis Nepal516
ENDPOINT: Kd (nM)

MMMSTAVAF :: 1.1

====

Reported pKd by item:
biological target: HLA-B*57:01; test: IEDB peptide-MHC binding, purified MHC/competitive/fluorescence; filed as Kd, often an IC50 or EC50 that approximates it; bounds were set here for any values at or beyond the usual limits of such assays; details: source organism: Homo sapiens
pKd: −log10 of the molar value.
ENDPOINT: pKd

FQWHEAMFL :: ≤ 4.70
VTENKKIQY :: ≤ 4.70

====

biological target: HLA-A*33:01; assay: IEDB peptide-MHC binding, purified MHC/competitive/radioactivity; filed as Kd, often an IC50 or EC50 that approximates it; bounds were set here for any values at or beyond the usual limits of such assays; conditions: source organism: Dengue virus 4 Philippines/H241/1956
pKd: −log10 of the molar value.
ENDPOINT: pKd

MTLMKGASKR :: 7.17
LALSLTFIR :: 8.19

====

biological target: HLA-A*23:01; assay: IEDB peptide-MHC binding, purified MHC/competitive/fluorescence; filed as Kd, often an IC50 or EC50 that approximates it; bounds were set here for any values at or beyond the usual limits of such assays; details: source organism: Vibrio antiquarius
ENDPOINT: Kd

SLTIPSFYT :: ≥ 20 µM

====

biological target: HLA-C*03:03; experiment: IEDB peptide-MHC binding, purified MHC/direct/fluorescence; filed as Kd, often an IC50 or EC50 that approximates it; bounds were set here for any values at or beyond the usual limits of such assays; settings: source organism: Escherichia coli O139:H28 str. E24377A
ENDPOINT: Kd

YALATQVEF :: ≤ 1 nM

====

target: HLA-B*58:01; experiment: IEDB peptide-MHC binding, purified MHC/direct/fluorescence; filed as Kd, often an IC50 or EC50 that approximates it; bounds were set here for any values at or beyond the usual limits of such assays; conditions: source organism: Brucella abortus
ENDPOINT: Kd

EKPPVRPIF :: ≥ 20 µM

====

biological target: HLA-B*53:01; test: IEDB peptide-MHC binding, purified MHC/competitive/radioactivity; filed as Kd, often an IC50 or EC50 that approximates it; bounds were set here for any values at or beyond the usual limits of such assays; details: source organism: Dengue virus 2 Jamaica/1409/1983
pKd: −log10 of the molar value.
ENDPOINT: pKd

SPCKIPFEI :: 5.89

====

biological target: HLA-A*68:02; assay: IEDB peptide-MHC binding, purified MHC/competitive/radioactivity; filed as Kd, often an IC50 or EC50 that approximates it; bounds were set here for any values at or beyond the usual limits of such assays; conditions: source organism: Dengue virus 4 Dominica/814669/1981
ENDPOINT: Kd (nM)

YSAPSESEGV :: 12.2
